This section presents compounds with their documented pIC50 values.
Subject of test: recombinant human AKR1C3 (Aldo-keto reductase family 1 member C3) (Homo sapiens, UniProt P42330)
Construct: GST (cleaved yes); made in house; host or cells: E. coli
Sequence (P42330 whole entry): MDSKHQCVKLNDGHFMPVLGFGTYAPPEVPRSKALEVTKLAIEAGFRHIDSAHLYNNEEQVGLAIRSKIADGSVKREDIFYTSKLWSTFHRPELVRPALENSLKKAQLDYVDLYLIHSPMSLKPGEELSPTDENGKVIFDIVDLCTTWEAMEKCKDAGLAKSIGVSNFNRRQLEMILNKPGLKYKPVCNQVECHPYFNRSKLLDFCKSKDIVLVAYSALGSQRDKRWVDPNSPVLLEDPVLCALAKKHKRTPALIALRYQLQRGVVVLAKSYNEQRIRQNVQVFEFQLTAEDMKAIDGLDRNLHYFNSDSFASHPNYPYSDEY
Method summary: In Vitro Assay 1: AKR1C3-inhibitory activity (Coumberone to Coumberol fluorescence assay)
Format: biochemical
Measurement parameters: recombinant enzyme, Coumberone 0.3 μM, NADPH 10 μM, 15 min pre-incubation, 4-parameter fit; average or median values
pIC50: −log10 of the molar value.

>  <Compound>
O=C(c1c[nH]nn1)N1[C@@H]2CC[C@H]1[C@H]1CN(S(=O)(=O)c3cccc(S(F)(F)(F)(F)F)c3)C[C@H]12 [Example 10]

>  <pIC50>
6.92

$$$$
>  <Compound>
O=C(c1cnn[nH]1)N1C[C@@H]2[C@H](C1)[C@H]1CC[C@@H]2N1S(=O)(=O)c1ccc(F)c(F)c1F [Example 49]

>  <pIC50>
6.83

$$$$
>  <Compound>
O=C(c1cnn[nH]1)N1C[C@@H]2[C@H](C1)[C@H]1CC[C@@H]2N1S(=O)(=O)c1ccc(Cl)c(Cl)c1 [Example 37]

>  <pIC50>
7.09

$$$$
>  <Compound>
COc1cc(C)ccc1S(=O)(=O)N1[C@@H]2CC[C@H]1[C@@H]1CN(C(=O)c3cnn[nH]3)C[C@@H]12 [Example 58]

>  <pIC50>
6.96

$$$$
>  <Compound>
O=C(c1cnn[nH]1)N1C[C@@H]2[C@H](C1)[C@H]1CC[C@@H]2N1S(=O)(=O)c1cccc([N+](=O)[O-])c1 [Example 33]

>  <pIC50>
6.76

$$$$
>  <Compound>
O=C(c1c[nH]nn1)N1C[C@@H]2[C@H](C1)[C@@H]1CC[C@H]2N1S(=O)(=O)c1cc(F)cc(F)c1 [Example 7]

>  <pIC50>
7.13

$$$$
